- tested_system: aromatase (Rattus norvegicus, UniProt P22443)
- Construct: In the rat, estradiol is physiologically synthesized to high circulating levels; from tissue; host or cells: whole animal: adult female Wistar rats (endogenous aromatase)
- Sequence (P22443 whole entry): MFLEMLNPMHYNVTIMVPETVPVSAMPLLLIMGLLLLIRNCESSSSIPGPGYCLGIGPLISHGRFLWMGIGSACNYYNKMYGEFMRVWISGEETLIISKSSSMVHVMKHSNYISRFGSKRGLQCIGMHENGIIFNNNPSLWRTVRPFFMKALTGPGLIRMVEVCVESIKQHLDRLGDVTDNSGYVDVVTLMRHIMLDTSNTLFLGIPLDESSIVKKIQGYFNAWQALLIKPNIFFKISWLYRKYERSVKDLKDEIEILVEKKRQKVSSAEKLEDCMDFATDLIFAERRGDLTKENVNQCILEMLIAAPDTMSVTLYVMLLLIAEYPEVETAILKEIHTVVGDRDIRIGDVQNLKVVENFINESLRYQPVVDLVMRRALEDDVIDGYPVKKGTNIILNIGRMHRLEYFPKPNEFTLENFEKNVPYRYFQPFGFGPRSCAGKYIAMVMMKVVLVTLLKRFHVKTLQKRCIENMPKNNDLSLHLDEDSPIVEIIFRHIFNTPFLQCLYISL
- protocol_details: Inhibition of aromatase in vivo (inhibition of the preovulatory surge of plasma estradiol levels)
- measurement_setup: rat, read-out: % inhibition at 10 µg/kg; adult female Wistar rats; single oral administration of 10 micrograms/kg on diestrus; plasma estradiol 24 hours later, vs vehicle controls; n = number of independent studies
Structures can show the parent of a compound that is named as a salt.
measured_parameter: inhibition at 0.01 mg/kg

N#Cc1ccc(N(Cc2ccc(F)cc2)n2ccnc2)cc1 [Example 14, hydrochloride hemihydrate] : 49 to 57%
N#Cc1ccc(N(Cc2ccc(Cl)cc2)n2ccnc2)cc1 [Example 7, hydrochloride] : 47%
N#Cc1ccc(CN(c2ccc(C#N)cc2)n2ccnc2)cc1 [Example 11, hydrochloride] : 57 to 59%
CC(C)(C#N)c1cc(Cn2cncn2)cc(C(C)(C)C#N)c1 [Anastrozole, anastrozole, reference compound] : 18 to 33%
N#Cc1ccc(N(Cc2ccc(F)c(F)c2)n2ccnc2)cc1 : 60%
N#Cc1ccc(N(Cc2ccc(C(F)(F)F)cc2)n2ccnc2)cc1 : 57%

----------
- tested_system: human aromatase (Homo sapiens)
- Construct: The JEG-3 cell line, derived from a human placental choriocarcinoma, is intrinsically very rich in human aromatase; endogenous in cells
- Sequence (P11511 whole entry): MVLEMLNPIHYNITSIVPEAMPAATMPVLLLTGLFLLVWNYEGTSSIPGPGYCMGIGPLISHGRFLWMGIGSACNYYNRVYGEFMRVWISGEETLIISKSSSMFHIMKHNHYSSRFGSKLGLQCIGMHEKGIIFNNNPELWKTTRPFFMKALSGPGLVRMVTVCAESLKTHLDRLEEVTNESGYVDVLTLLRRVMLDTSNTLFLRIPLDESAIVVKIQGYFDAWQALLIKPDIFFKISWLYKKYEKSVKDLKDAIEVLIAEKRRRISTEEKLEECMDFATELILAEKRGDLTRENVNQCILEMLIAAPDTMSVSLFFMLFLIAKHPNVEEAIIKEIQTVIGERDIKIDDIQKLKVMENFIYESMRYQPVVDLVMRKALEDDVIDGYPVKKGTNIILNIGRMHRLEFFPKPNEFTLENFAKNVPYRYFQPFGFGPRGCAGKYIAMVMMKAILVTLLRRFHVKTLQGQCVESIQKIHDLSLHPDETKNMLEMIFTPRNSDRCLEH
- protocol_details: Inhibition of human aromatase in vitro in JEG-3 cells (3H-water release from 1β-3H-androstenedione)
- measurement_setup: JEG-3 cell line; 1β-3H-androstenedione 10 nM; 2 hours incubation; mean ± sem
measured_parameter: IC50 (nM)

N#Cc1ccc(N(Cc2ccc(Br)cc2)n2cnnc2)cc1 [YM 511, reference compound] : 0.3
